# TGT: human M4 muscarinic acetylcholine receptor (Homo sapiens, UniProt P08173)
# Sequence (P08173 1-479): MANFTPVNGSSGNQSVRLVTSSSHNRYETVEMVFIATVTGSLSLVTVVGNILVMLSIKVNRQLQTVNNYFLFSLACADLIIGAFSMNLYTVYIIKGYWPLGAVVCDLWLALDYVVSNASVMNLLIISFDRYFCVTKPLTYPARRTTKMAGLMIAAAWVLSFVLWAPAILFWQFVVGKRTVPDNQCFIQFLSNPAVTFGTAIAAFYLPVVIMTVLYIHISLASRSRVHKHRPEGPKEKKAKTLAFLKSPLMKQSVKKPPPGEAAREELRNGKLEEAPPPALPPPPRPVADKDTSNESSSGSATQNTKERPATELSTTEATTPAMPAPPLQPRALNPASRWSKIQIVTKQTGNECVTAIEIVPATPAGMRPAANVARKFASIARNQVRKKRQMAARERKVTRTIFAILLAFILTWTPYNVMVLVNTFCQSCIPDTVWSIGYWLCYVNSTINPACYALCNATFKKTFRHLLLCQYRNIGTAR
# ASSAY_NAME: human FLIPR-based M4 PAM assay, CHO-K1 cells stably transfected with human M4 receptor and chimeric G-protein Gαqi5
# SETTINGS: inflection point (IP) of dose response curve; acetylcholine added at 20% of maximum response; CHO-K1 human M4/Gαqi5, FLIPR Tetra
pEC50: −log10 of the molar value.
REPORTED_PROPERTY: pEC50

Reference set, count: 3
{"COMPOUND_SMILES": "Cc1cc(C(=O)NCc2ccncc2Cl)nnc1N1CCC(Oc2cccc(C#N)c2)CC1", "pEC50": 6.62}
{"COMPOUND_SMILES": "CNC(=O)c1cc(C)c(N2CCC(Oc3ccc(OC)nc3)CC2)nn1", "pEC50": 6.92}
{"COMPOUND_SMILES": "COc1ccc(OC2CCN(c3nnc(C(=O)NC4(C)CCCC4)cc3C)CC2)cn1", "pEC50": 5.98}

[P] COc1ccc(OC2CCN(c3nc(SC)ncc3C#N)CC2)cc1
[Q] COC(=O)c1cc(C)c(N2CCC(Oc3ccc4c(c3)COC4)CC2)nc1Cl
Exercise: Would you let me know which has the greater pEC50 value, P or Q ? Reply with the label of the item you choose.
Key: P
